Sequence of the target: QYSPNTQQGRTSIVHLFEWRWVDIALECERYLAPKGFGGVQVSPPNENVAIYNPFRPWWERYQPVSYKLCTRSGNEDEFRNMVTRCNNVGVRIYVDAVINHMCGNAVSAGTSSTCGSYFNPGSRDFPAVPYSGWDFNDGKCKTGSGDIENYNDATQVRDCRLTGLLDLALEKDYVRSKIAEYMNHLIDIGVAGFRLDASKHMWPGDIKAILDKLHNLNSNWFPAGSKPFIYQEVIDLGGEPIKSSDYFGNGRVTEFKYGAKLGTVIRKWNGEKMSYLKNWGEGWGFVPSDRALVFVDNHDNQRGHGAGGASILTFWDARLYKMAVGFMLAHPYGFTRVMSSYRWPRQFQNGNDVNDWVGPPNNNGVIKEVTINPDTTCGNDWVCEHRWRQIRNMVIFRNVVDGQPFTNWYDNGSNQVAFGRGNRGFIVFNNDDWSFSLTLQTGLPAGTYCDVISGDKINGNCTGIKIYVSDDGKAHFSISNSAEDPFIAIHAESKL
Entries whose IC50 is below 300 µM take fulfilled; entries at or above 300 µM take not fulfilled.

CC(=O)N1N=C(c2ccc(Cl)cc2)CC1c1ccccc1O (centres unmarked) [Compound 20]	not fulfilled
COc1ccc(C2CC(c3ccc(Cl)cc3)=NN2C(C)=O)cc1O (centres unmarked) [Compound 16]	fulfilled
CC(=O)N1N=C(c2ccc(O)cc2)CC1c1ccc(N(C)C)cc1 (centres unmarked) [Compound 10]	not fulfilled
CC(=O)N1N=C(c2ccc(O)cc2)CC1c1cccc([N+](=O)[O-])c1 (centres unmarked) [Compound 9]	not fulfilled
CC(=O)N1N=C(c2ccc(O)cc2)CC1c1ccccn1 (centres unmarked) [Compound 7]	fulfilled
CC(=O)N1N=C(c2ccc(Cl)cc2)CC1c1ccco1 (centres unmarked) [Compound 21]	fulfilled
CC(=O)N1N=C(c2ccc(Cl)cc2)CC1c1ccccn1 (centres unmarked) [Compound 18]	fulfilled
CC(=O)N1N=C(c2ccccc2)CC1c1cccc([N+](=O)[O-])c1 (centres unmarked) [Compound 3]	not fulfilled
CC(=O)N1N=C(c2ccc(Cl)cc2)CC1c1cccc([N+](=O)[O-])c1 (centres unmarked) [Compound 22]	fulfilled
CC(=O)N1N=C(c2ccccc2)CC1c1ccc(C)cc1 (centres unmarked) [Compound 5]	fulfilled
CC(=O)N1N=C(c2ccc(Cl)cc2)CC1c1cccc(O)c1 (centres unmarked) [Compound 17]	not fulfilled
CC(=O)N1N=C(c2ccc(O)cc2)CC1c1ccc(C)cc1 (centres unmarked) [Compound 12]	not fulfilled
CC(=O)N1N=C(c2ccc(O)cc2)CC1c1ccco1 (centres unmarked) [Compound 8]	fulfilled
